Molecular target: human FAP (Homo sapiens)
Construct: The full length cDNAs for human DPP-VII, DPP-VIII, DPP-IX, and FAP were obtained from Open Biosystems; 6xHis (N); made in house; host or cells: S9 (Sf9) insect cells, baculovirus (pFastBac, Bac-to-Bac)
Sequence (Q12884 1-760): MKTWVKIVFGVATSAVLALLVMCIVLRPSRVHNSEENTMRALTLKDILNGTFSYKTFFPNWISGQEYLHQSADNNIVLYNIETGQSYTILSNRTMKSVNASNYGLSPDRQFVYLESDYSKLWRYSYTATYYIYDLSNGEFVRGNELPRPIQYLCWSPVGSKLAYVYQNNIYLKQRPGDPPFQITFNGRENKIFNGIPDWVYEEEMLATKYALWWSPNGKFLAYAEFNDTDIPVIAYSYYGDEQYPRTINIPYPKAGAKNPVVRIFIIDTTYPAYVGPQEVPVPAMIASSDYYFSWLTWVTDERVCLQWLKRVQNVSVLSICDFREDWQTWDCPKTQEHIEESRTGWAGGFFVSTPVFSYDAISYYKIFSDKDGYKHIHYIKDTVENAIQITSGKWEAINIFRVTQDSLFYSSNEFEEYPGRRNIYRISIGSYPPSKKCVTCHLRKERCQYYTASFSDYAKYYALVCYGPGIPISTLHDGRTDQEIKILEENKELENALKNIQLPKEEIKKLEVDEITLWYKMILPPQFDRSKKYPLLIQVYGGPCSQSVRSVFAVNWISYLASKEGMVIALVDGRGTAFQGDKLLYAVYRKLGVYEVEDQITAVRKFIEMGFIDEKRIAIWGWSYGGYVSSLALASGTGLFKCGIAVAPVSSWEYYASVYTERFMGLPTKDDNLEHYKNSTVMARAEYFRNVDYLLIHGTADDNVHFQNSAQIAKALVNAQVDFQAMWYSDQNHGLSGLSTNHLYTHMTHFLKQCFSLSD
Assay: FAP inhibition assay (Ala-Pro AMC), selectivity vs DPP-IV
Type: biochemical
Conditions: selectivity for DPP-IV relative to FAP

{"chem smiles": "CC(C)[C@@]1(N)C[C@@H]2SC[C@@H](C#N)N2C1=O.Cl", "Selectivity Ratios FAP": "C (C ≧ 100)"}
{"chem smiles": "Cl.N#C[C@@H]1CS[C@H]2C[C@](N)(C3CCCCC3)C(=O)N12", "Selectivity Ratios FAP": "C (C ≧ 100)"}
{"chem smiles": "Cl.N#C[C@@H]1CS[C@H]2C[C@](N)(CC3CCCCC3)C(=O)N12", "Selectivity Ratios FAP": "C (C ≧ 100)"}

Hello, the source for this data is patent US7786163B2, in case you need it.
